Experiment: Inhibition of HFIP-pretreated amyloid beta (1 to 42) aggregation at 20 uM after 48 hrs by thioflavin T fluorescence method
We begin with a simple list: items and their reported inhibition.

lineNotation	readoutUnit	inhibition
CCN(CC)c1ccc(/C=C2\Cc3cc(O)c(O)cc3C2=O)cc1	%	67
CN(C)c1ccc(/C=C2\Cc3cc(O)c(O)cc3C2=O)cc1	%	61.4
CCCN(C)c1ccc(/C=C2\Cc3cc(OC)c(O)cc3C2=O)cc1	%	50
COc1cc2c(cc1O)C(=O)/C(=C/c1ccc(OC)c(OC)c1)C2	%	19.5
COc1ccc(/C=C2\Cc3cc(OC)c(O)cc3C2=O)cc1	%	28.4
CCCNc1ccc(/C=C2\Cc3cc(OC)c(O)cc3C2=O)cc1	%	38.4
COc1cc2c(cc1OC)C(=O)/C(=C/c1ccc(N(C)C)cc1)C2	%	23.7
